- System: TK-10 renal
- method_notes: NCI-60 one-dose screen, 48 h (100 = growth as untreated, 0 = no growth, -100 = all killed)
- run_parameters: 10 µM unless noted
About 83,000 compounds went through this panel and 20% of them were active in at least one assay; those are over-represented in the sample as a whole.
Assign labels as follows, please: rule met for growth below 80%; rule not met for growth equal to or exceeding 80%.

Below, 4 compounds whose answers are already recorded.
# compound, target_or_system, assigned_class
rows = [
    ("CCCc1cc(CCC)n2nc(N)nc2n1", "TK-10 renal", "rule not met"),
    ("CC1=C([Se]CC(OC(=O)[C@@H](CO)NC(=O)OC(C)(C)C)C(=O)NCCCCCC(=O)OCc2ccccc2)C(=O)c2ccccc2C1=O (some centres undefined)", "TK-10 renal", "rule met"),
    ("CN1CCN(Cc2ccc(NC(=O)c3cncc(C#Cc4c(N)ncc5c(F)cccc45)c3)cc2C(F)(F)F)CC1", "TK-10 renal", "rule met"),
    ("FC(F)(F)c1cc(N2CCCCC2)nc(NCCCNc2ccnc3cc(Cl)ccc23)n1", "TK-10 renal", "rule met"),
]

Bench note: check whether C=C(C)[C@@H]1CC[C@]2(COCCCNCCCN)CC[C@]3(C)[C@H](CC[C@@H]4[C@@]5(C)CC[C@H](OCCCN)C(C)(C)[C@@H]5CC[C@]43C)[C@@H]12 shows growth below 80% rule met

Bench note: check whether O=C(/C=C/c1ccc([N+](=O)[O-])cc1)c1cccc(Nc2nc(Nc3ccccc3)nc(Nc3ccccc3)n2)c1 shows growth below 80% rule met

Bench note: check whether CCCCCCCCNC(=O)[C@@H](N)CSCOC(C)=O shows growth below 80% rule not met

Bench note: check whether N/C(=N\c1nc2ccccc2s1)NC(=O)Nc1ccccc1 shows growth below 80% rule met

====

- Tested on: OVCAR-5 ovarian
- method_notes: NCI-60 one-dose screen, 48 h
- run_parameters: 10 µM unless noted
About 83,000 compounds went through this panel and 20% of them were active in at least one assay; those are over-represented in the sample as a whole. Activity calls are given as the source filed them. The calls were made as follows: active = growth percent below 10; inactive = the rest.
// allowed return values: T = active, F = inactive

Below, 4 compounds whose answers are already recorded.
# compound, assigned_class
measured = [
    ("CCOC(=O)c1c(Nc2nc3ccccc3s2)sc2c1CCC(=O)C2", "F"),
    ("C/C=C(/C)C(=O)O[C@@H]1CC(C)(C)CC2C34OC(=O)[C@@]21CC[C@@]3(C)[C@]1(C)CCC2C(C)(C)C(=O)CC[C@]2(C)C1C[C@@H]4O (stereo partly drawn)", "F"),
    ("Cc1nc2cccc(NCc3ccc(C(=O)NO)cc3)c2c(=O)n1-c1ccccc1", "F"),
    ("COc1ccc(C2=NN(C=O)C(c3ccc(Oc4nc5c(c(=O)n(C)c(=O)n5C)n4C)c(OC)c3)C2)cc1 (stereo not drawn)", "F"),
]

Now let's try a different one.
Call for entry O=C1/C(=C/c2ccc(Br)cc2)COc2ccc(O)cc21 : F

====

- System: UO-31 renal
- method_notes: NCI-60 one-dose screen, 48 h
- run_parameters: 10 µM unless noted
About 83,000 compounds went through this panel and 20% of them were active in at least one assay; those are over-represented in the sample as a whole. Active and inactive are the calls of the source. How the source made its calls: active means growth percent below 10; inactive means the rest.
// allowed return values: true (1) (active), false (0) (inactive)

# compound, assigned_class
measured = [
    ("O=C(OCC(O)(CO)C(=O)NC12CC3CC(CC(C3)C1)C2)c1ccc(Cl)cc1 (stereo not given)", "false (0)"),
    ("O=C(O)/C=C\\C(=O)Nc1ccc2c(c1)Cc1cc(F)ccc1-2", "false (0)"),
    ("Nc1ncc(-c2ccc3ncnc(N4CCc5ccc(Cl)cc54)c3c2)cn1", "true (1)"),
]

Call for entry COc1cc(OCc2cccc(-c3ccc4c(c3)OCCO4)c2C)cc(OC)c1C=O : false (0)

Call for entry Cc1cc(=O)oc2cc(Oc3nc(-c4ccccc4)cn4c(-c5ccccc5)cnc34)ccc12 : false (0)

Call for entry C1=C2CCCC3=Cc4ccccc4OC23Oc2ccccc21 : false (0)

Call for entry COc1cc(/C=C2\CN(S(=O)(=O)c3ccc(C)cc3)C/C(=C\c3cc(CN4CCCC4)c(O)c(OC)c3)C2=O)cc(CN2CCCC2)c1O : true (1)

Call for entry CC/C(=C(/c1ccc(Cl)cc1)c1ccc(OCCCN(C)C)cc1)c1ccc(OC)cc1 : false (0)

Call for entry COc1cccc2cc(N(C)c3nc(C)nc4c3CCC4)ccc12 : false (0)

====

- Tested on: U251 CNS
- method_notes: NCI-60 one-dose screen, 48 h
- run_parameters: 10 µM unless noted
This is part of a sample that, as a whole, favours compounds with a hit. Of some 83,000 tested, about 20% had one in any assay. Active and inactive are the calls of the source. How the source made its calls: active means growth percent below 10; inactive means the rest.
// allowed return values: YES (active), NO (inactive)

# compound, assigned_class
records = [
    ("O=C(NC1CCCCCC1)c1ccc2c(=O)n3c(nc2c1)CCCCC3", "NO"),
]

Call for entry COc1ccc(-c2cc(-c3ccc(Cl)cc3)c(C#N)c(=O)n2CCCCC(=O)NO)cc1 : NO

Call for entry COc1ccc(/C=N\NC(=O)c2ccc3nc(-c4ccc(Cl)cc4)[nH]c3c2)cc1 : YES

Call for entry COc1ccc(Cn2cc(C(=O)N=Nc3c(O)[nH]c4ccc(Br)cc34)nn2)cc1 : NO

====

- Tested on: OVCAR-5 ovarian
- method_notes: NCI-60 one-dose screen, 48 h
- run_parameters: 10 µM unless noted
This is part of a sample that, as a whole, favours compounds with a hit. Of some 83,000 tested, about 20% had one in any assay. Activity calls are given as the source filed them. The calls were made as follows: active = growth percent below 10; inactive = the rest.
// allowed return values: y = active, n = inactive

Below, 2 compounds whose answers are already recorded.
# compound, assigned_class
records = [
    ("Cc1nc2ccccc2c(/C=C/c2ccc(Br)cc2)c1C(=O)/C=C/c1ccccc1", "y"),
    ("O=C(CN1C(=O)NC2NC(=O)NC21)N/N=C/c1cccc([N+](=O)[O-])c1 (stereo not given)", "n"),
]

Call for entry CCCCCN(CCCCC)CC(O)c1c(Cl)ccc2ccccc12 (stereo not given) : n

Call for entry CO[C@H]1CC(c2ccc[nH]2)=N[C@]12O[C@@H](C)C[C@@H]1CCCCCCCc3ccc([nH]3)[C@H]12 : n

Call for entry CC1=C([Se]CC(OC(=O)[C@@H](CO)NC(=O)OC(C)(C)C)C(=O)NCCCCCC(=O)OCc2ccccc2)C(=O)c2ccccc2C1=O (stereo not given in full) : y

Call for entry OC1CSSC1Cn1cnc2c(Nc3ccc(F)c(Cl)c3)ncnc21 (stereo not given) : n

Call for entry CC(C)(C)n1cc(-c2ccnc(NCCNS(=O)(=O)c3cccc4ccccc34)c2)c(-c2cccc(O)c2)n1 : n

Call for entry CCCCC1=C(Br)C(=O)c2ncccc2C1=O : n

Call for entry COc1cccc(C2C(C#N)=C(N)Oc3c2ccc2ccccc32)c1 (stereo not given) : n

Call for entry Oc1ccc(C2OCCO2)c2cccnc12 : n

Call for entry O=C(OCc1ccc2c(Br)cc(Br)c(O)c2n1)N1CCN(C(=O)c2cc3ccccc3[nH]2)CC1 : n

Call for entry Cc1c(-c2cnc3ccc(Cl)cc3c2C(=O)O)nnn1-c1ccc(Cl)cc1 : n

Call for entry Cc1nn(C)c2ncnc(Nc3ccccc3Br)c12 : n

Call for entry O=C1N/C(=N/N=C(c2ccccc2)c2ccccc2)S/C1=C\c1ccc(Br)cc1 : n

====

- Test system: EKVX NSCLC
- method_notes: NCI-60 one-dose screen, 48 h (100 = growth as untreated, 0 = no growth, -100 = all killed)
- run_parameters: 10 µM unless noted
Compounds without any hit were thinned out: in the full panel of roughly 83,000, 20% have a hit. Activity calls are given as the source filed them. How the source made its calls: active means growth percent below 10; inactive means the rest.
Each entry below carries its reported growth.

Hi! What's the reported growth for Cc1ccc(Nc2oc(-c3ccccc3)nc2[P+](c2ccccc2)(c2ccccc2)c2ccccc2)cc1 on EKVX NSCLC? -31.3% (active)

Hi! What's the reported growth for COc1cc2c(c(OC)c1OC)CCC(c1cccc(NC(=O)c3cccc(Cl)c3)c1)O2 (configuration not stated) on EKVX NSCLC? 85.9% (inactive)

Hi! What's the reported growth for Cn1ccnc1C(=O)/C=C/c1ccc(CC(=O)Nc2cc(F)c(F)c(F)c2)cc1 on EKVX NSCLC? 32.3% (inactive)

Hi! What's the reported growth for C=CCn1c(SCC(=O)Nc2ccc(C(=O)/C=C/c3ccc(Cl)cc3)cc2)nnc1-c1ccccc1 on EKVX NSCLC? 92.3% (inactive)

Hi! What's the reported growth for Cc1ccc(S(=O)(=O)N(CCC(=O)O)c2ccccc2)cc1 on EKVX NSCLC? 108% (inactive)

Hi! What's the reported growth for CN(Cc1ccccc1)c1nc(Cl)c(C2CC(c3ccc(Cl)cc3)=NN2c2cc(Cl)cc(Cl)c2)s1 (configuration not stated) on EKVX NSCLC? 94.4% (inactive)

Hi! What's the reported growth for CC1(C)CC[C@]2(CO)CC[C@]3(C)C(=CC[C@@H]4[C@@]5(C)CCNCC(C)(C)[C@@H]5CC[C@]43C)[C@@H]2C1 on EKVX NSCLC? 97.5% (inactive)

Hi! What's the reported growth for O=c1n(C2OC(CO)C(O)C2O)ccc2nccn12 (configuration not stated) on EKVX NSCLC? 108% (inactive)

Hi! What's the reported growth for CO[C@]12C=C/C(=C(/C(=O)OCc3cccnc3)C(=O)CCCCCCCC[C@]3(OC)C=C/C(=C(/C(=O)OCc4cccnc4)C(=O)CCCCCCCC1)O3)O2 on EKVX NSCLC? -53.8% (active)

Hi! What's the reported growth for COc1c(O[C@@H]2OC(CO)[C@H](O)[C@H](O)C2O)cc2oc3cc(O)c(CC=C(C)C)c(O)c3c(=O)c2c1CC=C(C)C (some centres not stated) on EKVX NSCLC? 93.5% (inactive)

Hi! What's the reported growth for CC(C)=CCC[C@](C)(O)C1CC[C@]2(C)[C@@H]1CC[C@@H]1[C@@]3(C)CC/C(=N\OCCC#N)C(C)(C)[C@@H]3CC[C@]12C (some centres not stated) on EKVX NSCLC? 72.4% (inactive)

Hi! What's the reported growth for CCOC(=O)c1c(Nc2nc3ccccc3s2)sc2c1CCC(=O)C2 on EKVX NSCLC? 42.8% (inactive)

Hi! What's the reported growth for CN(C)CCOc1nc2c3cc([N+](=O)[O-])ccc3nn2c2ccccc12 on EKVX NSCLC? 67.3% (inactive)
